# tested_system: ERR1 (also known as ERR-α or ERR-1) (Homo sapiens, UniProt P11474)
# Sequence (P11474 193-421 limits assumed): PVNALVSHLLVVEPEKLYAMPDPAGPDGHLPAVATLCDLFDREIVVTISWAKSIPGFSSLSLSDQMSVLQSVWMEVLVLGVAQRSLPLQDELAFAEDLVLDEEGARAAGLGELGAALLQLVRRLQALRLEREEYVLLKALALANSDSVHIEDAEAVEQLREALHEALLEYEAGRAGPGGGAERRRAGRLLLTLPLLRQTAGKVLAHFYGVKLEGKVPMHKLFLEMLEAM
# assay_protocol: TR-FRET assay (disruption of co-activator peptide binding)
# Format: biochemical
# experimental_context: 6His-tagged ERR1 LBD, GST-hSRC2 co-activator polypeptide; average of 3 independent experiments
pEC50: −log10 of the molar value.
measure: pEC50

[[record]]
compound = "O=C1N=C(N2CCO[C@H](CO)C2)S/C1=C\\c1ccc2c(c1)c(Cl)nn2Cc1ccc(Cl)cc1C(F)(F)F"
tested_system = "ERR1 (also known as ERR-α or ERR-1) (Homo sapiens, UniProt P11474)"
obs_value = 8.52

[[record]]
compound = "CN1CCN(C2=NC(=O)/C(=C/c3ccc4c(cnn4Cc4ccc(Cl)cc4I)c3)S2)CC1"
tested_system = "ERR1 (also known as ERR-α or ERR-1) (Homo sapiens, UniProt P11474)"
obs_value = 7.19

[[record]]
compound = "O=C1N=C(N2CCCN(CCO)CC2)S/C1=C\\c1ccc2c(cnn2Cc2ccc(Cl)cc2C(F)(F)F)c1"
tested_system = "ERR1 (also known as ERR-α or ERR-1) (Homo sapiens, UniProt P11474)"
obs_value = 7.74

[[record]]
compound = "O=C1N=C(N2CCC(n3cccn3)CC2)S/C1=C\\c1ccc2c(cnn2Cc2ccc(Cl)cc2C(F)(F)F)c1"
tested_system = "ERR1 (also known as ERR-α or ERR-1) (Homo sapiens, UniProt P11474)"
obs_value = 7.46

[[record]]
compound = "CCOC(=O)CN1CCN(C2=NC(=O)/C(=C/c3ccc4c(cnn4Cc4ccc(Cl)cc4C(F)(F)F)c3)S2)CC1"
tested_system = "ERR1 (also known as ERR-α or ERR-1) (Homo sapiens, UniProt P11474)"
obs_value = 7.54

[[record]]
compound = "COCC(=O)N1CCN(C2=NC(=O)/C(=C/c3ccc4c(cnn4Cc4ccc(Cl)cc4C(F)(F)F)c3)S2)CC1"
tested_system = "ERR1 (also known as ERR-α or ERR-1) (Homo sapiens, UniProt P11474)"
obs_value = 8.06

[[record]]
compound = "O=C1N=C(N2CCC(O)(Cn3ccnc3)CC2)S/C1=C\\c1ccc2c(cnn2Cc2ccc(Cl)cc2C(F)(F)F)c1"
tested_system = "ERR1 (also known as ERR-α or ERR-1) (Homo sapiens, UniProt P11474)"
obs_value = 7.92

[[record]]
compound = "COc1ccc(Cn2ncc3cc(/C=C4\\SC(N5CC[C@H]5C(=O)O)=NC4=O)ccc32)c(C(F)(F)F)c1"
tested_system = "ERR1 (also known as ERR-α or ERR-1) (Homo sapiens, UniProt P11474)"
obs_value = 8.11

[[record]]
compound = "COC(=O)C1CCN(C2=NC(=O)/C(=C/c3ccc4c(cnn4Cc4ccc(C(F)(F)F)cc4C(F)(F)F)c3)S2)CC1"
tested_system = "ERR1 (also known as ERR-α or ERR-1) (Homo sapiens, UniProt P11474)"
obs_value = 7.28

[[record]]
compound = "N[C@@H]1CCCN(C2=NC(=O)/C(=C/c3ccc4c(cnn4Cc4ccc(Cl)cc4C(F)(F)F)c3)S2)C1"
tested_system = "ERR1 (also known as ERR-α or ERR-1) (Homo sapiens, UniProt P11474)"
obs_value = 7.64

[[record]]
compound = "CC(C)N[C@@H]1C[C@H](CO)N(C2=NC(=O)/C(=C/c3ccc4c(cnn4Cc4ccc(C(F)(F)F)cc4C(F)(F)F)c3)S2)C1"
tested_system = "ERR1 (also known as ERR-α or ERR-1) (Homo sapiens, UniProt P11474)"
obs_value = 7.19

[[record]]
compound = "O=C1N=C(N2CCC[C@@H]2C(=O)O)S/C1=C\\c1ccc2c(cnn2Cc2ccc(C(F)(F)F)cc2C(F)(F)F)c1"
tested_system = "ERR1 (also known as ERR-α or ERR-1) (Homo sapiens, UniProt P11474)"
obs_value = 7.96

[[record]]
compound = "CS(=O)(=O)N1CCCN(C2=NC(=O)/C(=C/c3ccc4c(cnn4Cc4ccc(Cl)cc4C(F)(F)F)c3)S2)CC1"
tested_system = "ERR1 (also known as ERR-α or ERR-1) (Homo sapiens, UniProt P11474)"
obs_value = 8.30

[[record]]
compound = "CC1C(=O)N(C)CCN1C1=NC(=O)/C(=C/c2ccc3c(cnn3Cc3ccc(C(F)(F)F)cc3C(F)(F)F)c2)S1 (stereo not drawn)"
tested_system = "ERR1 (also known as ERR-α or ERR-1) (Homo sapiens, UniProt P11474)"
obs_value = 7.52

[[record]]
compound = "O=C1CCN(C2=NC(=O)/C(=C/c3ccc4c(cnn4Cc4ccc(Cl)cc4C(F)(F)F)c3)S2)CCN1"
tested_system = "ERR1 (also known as ERR-α or ERR-1) (Homo sapiens, UniProt P11474)"
obs_value = 7.89

[[record]]
compound = "CONC(=O)C1CN(C2=NC(=O)/C(=C/c3ccc4c(cnn4Cc4ccc(C(F)(F)F)cc4C(F)(F)F)c3)S2)CCN1 (stereo not drawn)"
tested_system = "ERR1 (also known as ERR-α or ERR-1) (Homo sapiens, UniProt P11474)"
obs_value = 7.46

[[record]]
compound = "CCOC(=O)C1(N)CCN(C2=NC(=O)/C(=C/c3ccc4c(cnn4Cc4ccc(Cl)cc4C(F)(F)F)c3)S2)CC1"
tested_system = "ERR1 (also known as ERR-α or ERR-1) (Homo sapiens, UniProt P11474)"
obs_value = 7.24

[[record]]
compound = "CC(C)N[C@@H]1C[C@H](CO)N(C2=NC(=O)/C(=C/c3ccc4c(cnn4Cc4ccc(Cl)cc4C(F)(F)F)c3)S2)C1"
tested_system = "ERR1 (also known as ERR-α or ERR-1) (Homo sapiens, UniProt P11474)"
obs_value = 7.38

[[record]]
compound = "O=C1N=C(N2CCC[C@@H]2C(=O)O)S/C1=C\\c1ccc2c(cnn2Cc2ccc(Cl)cc2C(F)(F)F)c1"
tested_system = "ERR1 (also known as ERR-α or ERR-1) (Homo sapiens, UniProt P11474)"
obs_value = 7.57

[[record]]
compound = "N[C@H]1CCCN(C2=NC(=O)/C(=C/c3ccc4c(cnn4Cc4ccc(C(F)(F)F)cc4C(F)(F)F)c3)S2)C1"
tested_system = "ERR1 (also known as ERR-α or ERR-1) (Homo sapiens, UniProt P11474)"
obs_value = 8.35

[[record]]
compound = "C[C@@H]1CN(C2=NC(=O)/C(=C/c3ccc4c(cnn4Cc4ccc(Cl)cc4C(F)(F)F)c3)S2)C[C@H](C)N1"
tested_system = "ERR1 (also known as ERR-α or ERR-1) (Homo sapiens, UniProt P11474)"
obs_value = 8.40

[[record]]
compound = "COCC(=O)N1CCN(C2=NC(=O)/C(=C/c3ccc4c(cnn4Cc4ccc(Cl)cc4C(F)(F)F)c3)S2)[C@H](C)C1"
tested_system = "ERR1 (also known as ERR-α or ERR-1) (Homo sapiens, UniProt P11474)"
obs_value = 8.47

[[record]]
compound = "NC1CN(C2=NC(=O)/C(=C/c3ccc4c(cnn4Cc4ccc(Cl)cc4C4CC4)c3)S2)C1"
tested_system = "ERR1 (also known as ERR-α or ERR-1) (Homo sapiens, UniProt P11474)"
obs_value = 7.31

[[record]]
compound = "O=C(O)C1=CCN(C2=NC(=O)/C(=C/c3ccc4c(cnn4Cc4ccc(Cl)cc4C(F)(F)F)c3)S2)CC1"
tested_system = "ERR1 (also known as ERR-α or ERR-1) (Homo sapiens, UniProt P11474)"
obs_value = 7.82

[[record]]
compound = "O=C1N=C(N2CCN(C3CC3)CC2)S/C1=C\\c1ccc2c(cnn2Cc2ccc(C(F)(F)F)cc2C(F)(F)F)c1"
tested_system = "ERR1 (also known as ERR-α or ERR-1) (Homo sapiens, UniProt P11474)"
obs_value = 7.38

[[record]]
compound = "O=C1N=C(N2CCc3c(O)noc3C2)S/C1=C\\c1ccc2c(cnn2Cc2ccc(Cl)cc2C(F)(F)F)c1"
tested_system = "ERR1 (also known as ERR-α or ERR-1) (Homo sapiens, UniProt P11474)"
obs_value = 7.54

[[record]]
compound = "O=C1N=C(N2CCO[C@H](CO)C2)S/C1=C\\c1ccc2c(cnn2Cc2ccc(O)cc2C(F)(F)F)c1"
tested_system = "ERR1 (also known as ERR-α or ERR-1) (Homo sapiens, UniProt P11474)"
obs_value = 8.40


Cited source for all entries: patent US8399681B2
